Reference for the values: patent US4243678A

test-details: Antiulcerogenic (stomach-protective) action, pylorus ligature and acetylsalicylic acid
Assay type: in vivo, rat (female)
condition-info: in vivo; LD50 mouse i.p. / ED50 rat i.d.; Table IV; read-out: TQ (LD50/ED50), antiulcerogenic action
Record form. Attribute: selectivity ratio. Fill in for each entry.

# molecule, test-value
measured = [
    ("CC=CC(=O)N(CCCC(=O)O)c1ccccc1-c1ccccc1 [Serial No. 27]", "~5.5"),
    ("CC(=O)N(CCCC(=O)O)c1ccccc1-c1ccccc1 [Serial No. 22]", 13.6),
]

The molecule O=C(O)CCCCN(C(=O)c1ccccc1O)c1ccccc1-c1ccccc1 [Serial No. 32] showed selectivity ratio equal to > 20

----------
test-details: Influence on pancreatic secretion of the narcotized rat
Assay type: in vivo, rat (male Sprague-Dawley)
condition-info: in vivo; LD50 mouse i.p. / ED50 rat i.d.; Table X; read-out: TQ LD50/ED50, pancreatic secretion
Record form. Attribute: selectivity ratio. Fill in for each entry.

Past entries and their recorded results:
# compound, measurement-name, test-value
records = [
    ("COc1ccc(Cl)cc1C(=O)N(CCCC(=O)O)c1cccc2ccccc12", "selectivity ratio", "> 270"),
    ("CCOc1ccc(N(CCCC(=O)O)C(=O)c2ccc(Cl)cc2)c2ccccc12", "selectivity ratio", 100),
    ("CCC(=O)N(CCCC(=O)O)C1CCCc2cc(OC)ccc21 (centres unmarked)", "selectivity ratio", "> 200"),
]

// input: 2 compounds below; output: selectivity ratio for each
1. O=C(O)CCCN(C(=O)c1ccc(Cl)c(Cl)c1)c1ccc2c(c1)CCC2
2. CC(C)C(=O)N(CCCC(=O)O)C1CCCc2ccccc21 (centres unmarked)

> 180
≥ 66.7

----------
test-details: Influence on bile secretion (choleresis) of the narcotized rat
Assay type: in vivo, rat (male Sprague-Dawley)
condition-info: in vivo; LD50 mouse i.p. / ED50 rat i.d.; Table II; read-out: TQ (LD50/ED50), bile secretion
measurement-name: selectivity ratio
Numbers only.

# compound, selectivity ratio
rows = [
    ("C#CC1(N(CCCC(=O)O)C(=O)c2ccc(Cl)cc2)CCCCC1", 32),
    ("CC(=O)N(CCCC(=O)O)C(c1ccccc1)c1ccccc1 [Serial No. 14, N-acetyl-4-benzhydrylaminobutyric acid]", 220),
]

Then this compound:
The compound O=C(O)CCCN(C(=O)c1ccc(Cl)cc1)C(Cc1ccccc1)c1ccccc1 (stereo not shown) showed selectivity ratio equal to 32

----------
test-details: Antihepatotoxic effect: duration of hexobarbital sleep of the rat after liver damage by CCl4
condition-info: rat, in vivo, TQ (LD50/ED50), antihepatotoxic effect, LD50 mouse i.p. / ED50 rat p.o.; Table III
measurement-name: selectivity ratio

// input: 3 compounds below; output: selectivity ratio for each
1. CC(c1ccccc1)N(CCCC(=O)O)C(=O)c1ccc(Cl)cc1 (racemic)
2. O=C(O)CCCN(C(=O)c1ccc(Cl)cc1)C(Cc1ccccc1)c1ccccc1 (stereo not shown)
3. O=C(O)CCCN(C(=O)c1ccc(Cl)cc1)C(c1ccccc1)c1ccccc1

~120
16
25

The compound O=C(O)CCCN(C(=O)c1ccc(Cl)cc1)C1CCCCCCC1 showed selectivity ratio equal to 18.8

----------
Tested on: liver damage by CCl4
test-details: Antihepatotoxic effect: duration of hexobarbital sleep of the rat after liver damage by CCl4
condition-info: Rattus norvegicus, po, read-out: ED50 antihepatotoxic effect (shortens hexobarbital narcosis by 50%)
measurement-name: ED50 (mg/kg)
Give bare numbers, in mg/kg.

# chemical-string, ED50 / mg/kg
data = [
    ("O=C(O)CCCN(C(=O)c1ccc(Cl)cc1Cl)c1cccc2ccccc12", 26),
    ("O=C(O)CCCN(C(=O)c1ccc(F)cc1)c1ccccc1-c1ccccc1", 2.8),
]

The compound O=C(O)CCCN(C(=O)c1ccc(Cl)cc1)c1cccc2ccccc12 showed ED50 equal to 40
